# Test System: Eukaryotic initiation factor 4A-I (Homo sapiens)
# Experimental Details: Inhibition of human recombinant N-terminal His6-tagged eIF4A expressed in Escherichia coli BL21 CodonPlus cells using ATP and yeast RNA as substrate preincubated with enzyme for 20 mins followed by susbtrate addition and measured after 4 hrs by Malachite green ATPase assay
Listed here are compounds together with their documented IC50.
Number only, in µM; omit the unit.

Known IC50 results, listed for orientation:
[[record]]
smiles_repr = "CCCCc1ccc(-c2ccc(-c3cc(C(=O)O)c4cc(F)c(F)cc4n3)o2)cc1"
test_system = "Eukaryotic initiation factor 4A-I (Homo sapiens)"
readout_type = "IC50"
measured_result = 54

[[record]]
smiles_repr = "CCCCc1ccc(-c2ccc(-c3cc(C(=O)O)c4cc(I)ccc4n3)o2)cc1"
test_system = "Eukaryotic initiation factor 4A-I (Homo sapiens)"
readout_type = "IC50"
measured_result = 41.5


Okay, now this compound:
Prompt: Need IC50 of "O=C(O)c1cc(-c2ccc(-c3ccccc3Oc3ccccc3)o2)nc2ccc([N+](=O)[O-])cc12" , thanks.
Completion: 21

----------
# Test System: Eukaryotic initiation factor 4A-I (Homo sapiens, UniProt P60842)
# Sequence (P60842 whole entry): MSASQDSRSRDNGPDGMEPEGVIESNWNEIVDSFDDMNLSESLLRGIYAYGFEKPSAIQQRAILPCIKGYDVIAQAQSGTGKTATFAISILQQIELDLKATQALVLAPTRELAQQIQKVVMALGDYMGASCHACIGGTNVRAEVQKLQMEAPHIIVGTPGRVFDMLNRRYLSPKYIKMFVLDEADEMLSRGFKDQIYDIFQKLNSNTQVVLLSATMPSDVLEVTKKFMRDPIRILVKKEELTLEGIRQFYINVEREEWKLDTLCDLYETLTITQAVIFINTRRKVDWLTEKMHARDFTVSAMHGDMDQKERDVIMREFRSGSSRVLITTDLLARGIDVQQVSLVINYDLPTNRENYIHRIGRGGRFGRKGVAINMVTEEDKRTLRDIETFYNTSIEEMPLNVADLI
# Experimental Details: Inhibition of human recombinant N-terminal His6-tagged eIF4A expressed in Escherichia coli BL21 CodonPlus cells using ATP and yeast RNA as substrate preincubated with enzyme for 20 mins followed by susbtrate addition and measured after 4 hrs by Malachite green ATPase assay
Listed here are compounds together with their documented pIC50.
Lab note: report pIC50 as minus log10 of the concentration in molar units, number only.

[[record]]
smiles_repr = "CCCCc1ccc(-c2ccc(-c3cc(C(=O)O)c4cc(OC)ccc4n3)o2)cc1"
readout_type = "pIC50"
measured_result = 4.27

[[record]]
smiles_repr = "CCCCc1ccc(-c2ccc(-c3cc(C(=O)O)c4cc([N+](=O)[O-])ccc4n3)cn2)cc1"
readout_type = "pIC50"
measured_result = 4.22

[[record]]
smiles_repr = "CCCOc1ccc(-c2ccc(-c3cc(C(=O)O)c4cc([N+](=O)[O-])ccc4n3)o2)cc1"
readout_type = "pIC50"
measured_result = 4.34


Okay, now this compound:
Prompt: Need pIC50 of "CCCCCc1ccc(-c2ccc(-c3cc(C(=O)O)c4cc([N+](=O)[O-])ccc4n3)o2)cc1" , thanks.
Completion: 5.06
